assay method text: Solubility of Compound 1 in solvents
Format: physicochemical
test settings: second solvent, for example heptane or water
observed property: solubility

q: Param item = CC(C)(CO)c1cc2cc(NC(=O)C3(c4ccc5c(c4)OC(F)(F)O5)CC3)c(F)cc2n1C[C@@H](O)CO ; retrieve measured solubility.
a: < 1000 µg/mL

###

assay method text: Solubility of Compound 1 in solvents
Assay type: physicochemical
test settings: organic solvent or mixture; first solvent, e.g. ethyl acetate, ethanol, isopropyl alcohol, or acetone
observed property: solubility

q: Param item = CC(C)(CO)c1cc2cc(NC(=O)C3(c4ccc5c(c4)OC(F)(F)O5)CC3)c(F)cc2n1C[C@@H](O)CO ; retrieve measured solubility.
a: > 20 mg/mL
